# experiment description: MTT assay, cytotoxicity on non-tumorigenic cells, MCF-10A
# Assay type: cell-based
# applied conditions: human, MCF-10A non-tumorigenic breast epithelial cells; MTT, MCF-10A normal breast epithelial cells
Entries and their measured GI50 at 48 h follow.
quantity measured: GI50 at 48 h

- compound: "O=C(NCc1nnc(/N=C/c2ccc(Cl)cc2)s1)c1ccccc1 [Compound 7a]"
  assay value: "> 100 µM"
- compound: "O=C(NCc1nnc(/N=C/c2cccs2)s1)c1ccccc1 [Compound 7l]"
  assay value: "> 100 µM"
- compound: "O=C(NCc1nnc(/N=C/c2ccc(Cl)cc2Cl)s1)c1ccccc1 [Compound 7b]"
  assay value: "86.1 µM"
- compound: "O=C(NCc1nnc(/N=C/c2ccco2)s1)c1ccccc1 [Compound 7k]"
  assay value: "> 100 µM"

---

# Test system: SKMEL-2 (human melanoma cancer cell line)
hey, just use true (1) if measured GI50 is less than 30 µM, otherwise false (0)

- compound: "COc1ccc(/C=N/c2nnc(CNC(=O)c3ccccc3)s2)cc1OC [Compound 7h]"
  cat: "false (0)"
- compound: "COc1cc(/C=N/c2nnc(CNC(=O)c3ccccc3)s2)ccc1O [Compound 7e]"
  cat: "true (1)"
- compound: "O=C(NCc1nnc(/N=C/c2ccco2)s1)c1ccccc1 [Compound 7k]"
  cat: "true (1)"
- compound: "O=C(NCc1nnc(/N=C/c2cccs2)s1)c1ccccc1 [Compound 7l]"
  cat: "true (1)"
- compound: "O=C(NCc1nnc(/N=C/c2ccc(Cl)cc2)s1)c1ccccc1 [Compound 7a]"
  cat: "true (1)"
- compound: "O=C(NCc1nnc(/N=C/c2ccccc2O)s1)c1ccccc1 [Compound 7d]"
  cat: "false (0)"
- compound: "COc1ccc(/C=N/c2nnc(CNC(=O)c3ccccc3)s2)cc1 [Compound 7g]"
  cat: "false (0)"
- compound: "COc1cc(/C=N/c2nnc(CNC(=O)c3ccccc3)s2)cc(OC)c1OC [Compound 7i]"
  cat: "false (0)"

---

# System: SKMEL-2 (human melanoma cancer cell line)

- molecule: "O=C(NCc1nnc(/N=C/c2ccc(Cl)cc2Cl)s1)c1ccccc1 [Compound 7b]"
  target system: "SKMEL-2 (human melanoma cancer cell line)"
  unit symbol: "µM"
  rel: "="
  GI50: 22.9
- molecule: "O=C(NCc1nnc(/N=C/c2ccc(O)cc2)s1)c1ccccc1 [Compound 7c]"
  target system: "SKMEL-2 (human melanoma cancer cell line)"
  unit symbol: "µM"
  rel: "="
  GI50: 27.5
- molecule: "COc1cc(OC)c(OC)cc1/C=N/c1nnc(CNC(=O)c2ccccc2)s1 [Compound 7j]"
  target system: "SKMEL-2 (human melanoma cancer cell line)"
  unit symbol: "µM"
  rel: "="
  GI50: 55.7
- molecule: "COc1cccc2c1C(=O)c1c(O)c3c(c(O)c1C2=O)C[C@@](O)(C(=O)CO)C[C@@H]3O[C@H]1C[C@H](N)[C@H](O)[C@H](C)O1 [ADR, Adriamycin, reference compound]"
  target system: "SKMEL-2 (human melanoma cancer cell line)"
  unit symbol: "µM"
  rel: "<"
  GI50: 10

Data provenance is paper PMC6152631.
